- experimental_system: T1, human EphA4 (Homo sapiens, UniProt P54764)
- T1 construct: made in house; not restated for the human SEAP-His protein
- T1 sequence (P54764 20-547): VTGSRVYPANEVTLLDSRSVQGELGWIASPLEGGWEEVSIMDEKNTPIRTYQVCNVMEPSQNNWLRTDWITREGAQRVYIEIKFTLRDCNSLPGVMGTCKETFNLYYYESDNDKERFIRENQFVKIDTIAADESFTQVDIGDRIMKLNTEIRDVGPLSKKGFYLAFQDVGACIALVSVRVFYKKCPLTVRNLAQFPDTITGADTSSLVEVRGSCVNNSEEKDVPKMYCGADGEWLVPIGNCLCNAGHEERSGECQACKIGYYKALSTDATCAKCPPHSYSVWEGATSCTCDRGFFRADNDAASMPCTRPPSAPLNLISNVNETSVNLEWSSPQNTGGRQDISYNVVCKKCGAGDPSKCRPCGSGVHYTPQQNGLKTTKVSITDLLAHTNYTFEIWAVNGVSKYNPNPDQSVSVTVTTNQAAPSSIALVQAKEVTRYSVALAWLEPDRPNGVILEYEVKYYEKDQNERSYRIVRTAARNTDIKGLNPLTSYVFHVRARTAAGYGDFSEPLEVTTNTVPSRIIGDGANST
- assay_summary: Affinity of humanized antibodies by SPR (Biacore T200)
- Format: binding
- stated_conditions: human EphA4 extracellular region-SEAP-His; KD=kd/ka
- Experimental: The binding affinity of each anti-EphA4 monoclonal humanized antibody obtained in Example 16 for human EphA4 was determined by surface plasmon resonance (SPR) using Biacore T200 (GE Healthcare). First, for the assay of antibody A, a rat anti-mouse IgG1 antibody produced with a conventional method by immunizing rat with mouse IgG1 antibody was immobilized on sensor chip CM5. […]
measured_endpoint: pKd
When answering, recall that pKd equals minus log10 of the concentration in mol/L, and write that number alone.

molecule	measured_endpoint	measured
154 (antibody, V domains shown, synthetic humanized antibody heavy chain variable region sequence; synthetic humanized antibody light chain variable region sequence) VH: QVQLVQSGSELKKPGASVKVSCKASGYTFTDYSMHWVRQAPGQGLEWMGWINTETGEPTYADDFKGRFVFSLDTSVSTAYLQISSLKAEDTAVYYCARIPLYYYGSRYWYFDVWGQGTTVTVSS VL: DIQMTQSPSSLSASVGDRVTITCRASENIYRNLAWYQQKPGKAPKLLLYAATNLADGVPSRFSGSGSGTDYTLTISSLQSEDFATYYCQHFWGTPWTFGQGTKVEIK	pKd	8.66
132 (antibody, V domains shown, synthetic humanized antibody heavy chain variable region sequence; synthetic humanized antibody light chain variable region sequence) VH: QIQLVQSGSELKKPGASVKVSCKASGYTFTDYSMHWVRQAPGQGLKWMGWINTETGEPTYAQGFTGRFVFSLDTSVSTAYLQISSLKAEDTAVYYCARIPLYYYGSRYWYFDVWGQGTTVTVSS VL: EIVMTQSPATLSVSPGERATLSCRASENIYRNLAWYQQKPGQSPRLLIYAATNLADGIPARFSGSGSGTEYTLTISSLQSEDFAVYYCQHFWGTPWTFGQGTKVEIK	pKd	8.92
155 (antibody, V domains shown, synthetic humanized antibody heavy chain variable region sequence; synthetic humanized antibody light chain variable region sequence) VH: QIQLVQSGSELKKPGASVKVSCKASGYTFTDYSMHWVRQAPGQGLKWMGWINTETGEPTYADDFKGRFVFSLDTSVSTAYLQISSLKAEDTAVYYCARIPLYYYGSRYWYFDVWGQGTTVTVSS VL: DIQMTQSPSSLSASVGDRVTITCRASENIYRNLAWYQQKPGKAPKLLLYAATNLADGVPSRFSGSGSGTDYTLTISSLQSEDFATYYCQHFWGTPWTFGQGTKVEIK	pKd	8.72

Attention now shifts to the item below.
Record 134 (antibody, V domains shown, synthetic humanized antibody heavy chain variable region sequence; synthetic humanized antibody light chain variable region sequence) VH: QVQLVQSGSELKKPGASVKVSCKASGYTFTDYSMHWVRQAPGQGLKWMGWINTETGEPTYAQGFTGRFVFSLDTSVSTAYLQISSLKAEDTAVYYCARIPLYYYGSRYWYFDVWGQGTTVTVSS VL: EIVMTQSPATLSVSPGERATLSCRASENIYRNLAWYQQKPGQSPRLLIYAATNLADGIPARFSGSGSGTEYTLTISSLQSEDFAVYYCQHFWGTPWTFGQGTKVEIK . Reported pKd: 8.92
